# target: Muscarinic acetylcholine receptor M1 (Homo sapiens, UniProt P11229)
# Sequence (P11229 whole entry): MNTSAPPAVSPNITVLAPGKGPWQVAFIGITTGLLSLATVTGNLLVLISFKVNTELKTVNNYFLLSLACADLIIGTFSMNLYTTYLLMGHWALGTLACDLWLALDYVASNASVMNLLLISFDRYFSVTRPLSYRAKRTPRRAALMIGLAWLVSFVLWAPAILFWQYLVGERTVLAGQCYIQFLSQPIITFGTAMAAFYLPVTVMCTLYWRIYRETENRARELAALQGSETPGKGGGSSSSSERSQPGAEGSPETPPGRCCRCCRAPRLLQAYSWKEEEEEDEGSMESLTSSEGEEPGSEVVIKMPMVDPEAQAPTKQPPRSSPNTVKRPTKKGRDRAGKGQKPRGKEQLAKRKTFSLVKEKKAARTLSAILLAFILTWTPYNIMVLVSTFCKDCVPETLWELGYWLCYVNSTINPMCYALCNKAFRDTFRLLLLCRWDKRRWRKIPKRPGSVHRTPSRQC
# assay.remarks: Binding affinity towards M1 muscarinic receptor expressed in A9 L cells by displacing [3H](R)-QNB radioligand.
parameter.measured: Ki (nM)

Known Ki results, listed for orientation:
Summary for this compound, `CN1CCC=C(c2nsnc2SCCCCCCCCCCSc2nsnc2C2=CCCN(C)C2)C1` : Ki is 0.32

Summary for this compound, `CN1CCC=C(c2nsnc2SCCCCCCSc2nsnc2C2=CCCN(C)C2)C1` : Ki is 0.87

Summary for this compound, `CN1CCC=C(c2nsnc2OCCCCCCCCCOc2nsnc2C2=CCCN(C)C2)C1` : Ki is 0.84

a: CN1CCC=C(c2nsnc2SCCCCCCCSc2nsnc2C2=CCCN(C)C2)C1
b: CN1CCC=C(c2nsnc2OCCOCCOCCOCCOCCOCCOc2nsnc2C2=CCCN(C)C2)C1
Could you please tell me which of these two has the higher Ki: a or b ? The response must carry the label of the picked entry.
a
(a: 7.6 nM, b: 1.9 nM)
